Cited source for all entries: patent US20140018375A1

Test system: Calu6
PROTOCOL_SUMMARY: Cell-Titer Glo cell viability assay, Calu6
Type: cell-based, human
PROTOCOL_CONDITIONS: Homo sapiens, Calu-6, read-out: EC50, growth inhibition in vitro
pEC50: −log10 of the molar value.
ASSAY_READOUT: pEC50

Fill blank: measured pEC50 of the compound C#Cc1cccc(Nc2ncnc3cc(OCCOC)c(OCCOC)cc23)c1 is ____.
< 5.00

* * *

Tested on: H460
PROTOCOL_SUMMARY: Cell-Titer Glo cell viability assay, H460
Type: cell-based, human
PROTOCOL_CONDITIONS: Homo sapiens, NCI-H460, 72 h, read-out: EC50 Half Maximal
ASSAY_READOUT: pEC50
Answers are plain numbers, as −log10 of the molar value.

Give the reported pEC50 for C#Cc1cccc(Nc2ncnc3cc(OCCOC)c(OCCOC)cc23)c1 [erlotinib] (system: H460).
5.30

* * *

Tested on: Calu6
PROTOCOL_SUMMARY: Cell-Titer Glo cell viability assay, Calu6
Assay type: cell-based, human
PROTOCOL_CONDITIONS: Homo sapiens, Calu-6, 72 h, read-out: EC50 Half Maximal
ASSAY_READOUT: EC50

Fill blank: measured EC50 of the compound C#Cc1cccc(Nc2ncnc3cc(OCCOC)c(OCCOC)cc23)c1 is ____.
> 10 µM
